Data provenance: patent US10280156B2

- Test system: PBMC of healthy individuals
- assay overview: Viability of healthy donor cells in suspension culture
- Assay type: cell-based
- condition info: Homo sapiens, 48 h, read-out: IC50 HD Suspension
metric name: pIC50
// scale note: pIC50 = -log10(conc_M); give the bare number

I have this compound here, CCOc1ccccc1C(=O)/C=C/c1cc2ccccc2[nH]1 [Compound 15] , and I need its recorded pIC50.
4.87

* * *

- Test system: PBMC of CLL patients cultured over a layer of mouse fibroblast cells (M2-10B4)
- assay overview: Viability of CLL cells in co-culture with M2-10B4 fibroblast cells
- Assay type: cell-based
- condition info: Homo sapiens, M210B4, 48 h
metric name: IC50
State the value, then name its unit.

Item under review: "CCOc1ccccc1C(=O)/C=C/c1cc2ccccc2[nH]1" . Reported IC50?
680 nM

* * *

- System: HL60
- assay overview: Viability test on HL60 cells
- Assay type: cell-based, human
- condition info: Homo sapiens, HL-60; myeloid leukemia; nd = no significant cytotoxic activity up to 100 μM
metric name: IC50 (nM)
Unit nM implied. Number only.

Given CCOc1ccccc1C(=O)/C=C/c1cc2ccccc2[nH]1 [Compound 15] , state its recorded IC50.
20

* * *

Assign IC50 to each entry below.
- Tested on: U-2940
- assay overview: Viability test on U-2940 cells, 48 h
- Assay type: cell-based, human
- condition info: Homo sapiens, U-2940, 48 h, 48 h incubation; nd = no significant cytotoxic activity up to 100 μM
Kindly report the value followed by its unit.

Any idea what IC50 was measured for "CCOc1ccccc1C(=O)/C=C/c1cc2ccccc2o1" ?
7.1 µM

Also check "CCOc1cccc(C(=O)/C=C/c2ccc3ccccc3c2)c1"
16.2 µM

Lookup "CCOc1ccccc1C(=O)/C=C/c1cc2ccccc2s1"
2.31 µM

"CCCOc1ccccc1C(=O)/C=C/c1ccc2ccccc2c1" ?
5.31 µM

Proceed to "CCCCOc1ccccc1C(=O)/C=C/c1ccc2ccccc2c1"
5.31 µM

Also "CCOc1ccccc1C(=O)/C=C/c1ccc(-c2cccs2)s1" , if possible.
3.13 µM

What do we get for "C=Cc1cccc(/C=C/C(=O)c2ccccc2OCC)c1" ?
2.5 µM

Could you do the same for "CCOc1ccccc1C(=O)/C=C/c1ccc2[nH]ccc2c1" , please?
1.71 µM

Now consider "CCOc1ccccc1C(=O)/C=C/c1csc2ccccc12" and answer again.
0.86 µM

Try this molecule too: "CCOc1ccccc1C(=O)/C=C/c1cccc2ccccc12"
7.37 µM

* * *

Consider the following compounds; for each one, report its melting point.

Given the entry CCOc1ccc(C(=O)/C=C/c2ccc3[nH]ccc3c2)cc1 [Compound 24] , report its measured melting point.
171 to 173 °C

Also CCOc1ccccc1C(=O)/C=C/c1cccc2ccccc12 [Compound 10] ?
109 to 110 °C

Subsequent entry: CCOc1ccc(C(=O)/C=C/c2csc3ccccc23)cc1 [Compound 19]
129 to 130 °C

Continue with CC(C)Oc1ccccc1C(=O)/C=C/c1ccc2ccccc2c1 [Compound 5]
82 to 85 °C

How about CCOc1ccc(C(=O)/C=C/c2ccc3sccc3c2)cc1 [Compound 29] ?
149 to 151 °C

* * *

- Test system: U-2940
- assay overview: Viability test on U-2940 cells, 48 h
- Format: cell-based, human
- condition info: Homo sapiens, U-2940, 48 h, 48 h incubation; nd = no significant cytotoxic activity up to 100 μM
- Method: […] All experiments with hematological cell lines were done using phenol red-free RPMI 1640+L-glutamine (PAA Laboratories) supplemented with 1% PenStrep and 10% FBS gold, except experiments with OCI-Ly7 which were carried out in Gibco IMEM+GlutaMAX and 25 mM HEPES containing 20% FBS gold and 1% PenStrep. […] IC50 values were calculated from two independent experiments using GraphPad Prism 5 software. […]
metric name: IC50 (µM)
Lab book: enter the figure in µM, no units written.

Could you tell me which IC50 is on file for "CCOc1ccccc1C(=O)/C=C/c1ccc2c(c1)OCO2" ?
9.49

For "CCOc1ccccc1C(=O)/C=C/c1cc2ccccc2c2ccccc12" then?
39.9

// query: "CC(C)Oc1ccccc1C(=O)/C=C/c1ccc2ccccc2c1"
11.1

One more molecule: "CCCOc1ccccc1C(=O)/C=C/c1cc2ccccc2[nH]1"
10.1

Next molecule up: "CCOc1cccc(C(=O)/C=C/c2ccc3c(c2)OCO3)c1"
18.8

Entry "CCCOc1ccccc1C(=O)/C=C/c1ccc2[nH]ccc2c1" please
7.1

Also "CCOc1ccc(C(=O)/C=C/c2cc3ccccc3o2)cc1" ?
42.2

What would you report for "CCOc1cccc(C(=O)/C=C/c2ccc3sccc3c2)c1" ?
12.9

Could you do the same for "CCOc1ccc(C(=O)/C=C/c2csc3ccccc23)cc1" , please?
14.6
